Property label: melting point

NNC(=O)Cc1nc(-c2ccccc2)cs1: 135 to 140 °C
CC(C)S(=O)(=O)Nc1ccc(S(N)(=O)=O)cc1F: 134 to 136 °C
O=C(CCl)NCc1ccc(C(=O)N2CCOCC2)cc1: 142 to 144 °C
O=C(CCCl)Nc1cccc([N+](=O)[O-])c1: 75 to 77 °C
Fc1ccc(-n2nccc2Br)cc1: 73 to 75 °C

For every item in the list below, what is its measured melting point?
1. COc1cc(C(C)N)ccc1OCCO (configuration not stated)
2. Cc1nn(-c2ccc(F)cc2F)c(C)c1C=O

Result:
103 to 105 °C
129 to 131 °C
